# Test system: Puccinia recondita tritici (leaf rust)
# RUN_DESCRIPTION: Test 1 greenhouse foliar spray screen, leaf rust on wheat
# Format: in vivo
# MEASUREMENT_SETUP: Puccinia recondita, foliar, Test 1, foliar spray on wheat; disease control rating at 400 ppm / 100 ppm
PARAMETER_MEASURED: pest or weed control at 400 ppm

pest or weed control at 400 ppm on Puccinia recondita tritici (leaf rust) for c1csc(CCOc2ccnc3ccccc23)c1 [Example 245, 4-[2-(2-thienyl)ethoxy]quinoline] is 90 to 100%

pest or weed control at 400 ppm on Puccinia recondita tritici (leaf rust) for C=CCCCOc1ccnc2c(F)cccc12 is 90 to 100%

pest or weed control at 400 ppm on Puccinia recondita tritici (leaf rust) for Cc1ccc(CCOc2cc(Cl)nc3c(F)cccc23)cc1 is 20 to 89%

pest or weed control at 400 ppm on Puccinia recondita tritici (leaf rust) for Fc1cccc2c(OCCc3ccccc3)ccnc12 is 90 to 100%

pest or weed control at 400 ppm on Puccinia recondita tritici (leaf rust) for COc1ccc(CCOc2ccnc3c(F)cccc23)cc1 is 90 to 100%

pest or weed control at 400 ppm on Puccinia recondita tritici (leaf rust) for Fc1cccc2c(OCCc3cccc(Oc4ccccc4)c3)ccnc12 is 90 to 100%

pest or weed control at 400 ppm on Puccinia recondita tritici (leaf rust) for Fc1cccc2c(OCCc3ccccc3-c3ccccc3)ccnc12 is 20 to 89%

pest or weed control at 400 ppm on Puccinia recondita tritici (leaf rust) for CC(C)(C)c1ccc(CCOc2ccnc3c(F)cccc23)cc1 is 90 to 100%

====

# System: southern armyworm (Spodopetra eridania Cramer)
# RUN_DESCRIPTION: Mite/insect screen, SAW
# Assay type: in vivo
# MEASUREMENT_SETUP: Spodoptera eridania, percent mortality; SAW, SM & MA RATE 400 PPM; read-out: SAW RESULTS %
# Experimental: The compounds of Examples 1-295 were tested for miticidal and insecticidal activity in the following mite/insect screen. Each test compound was formulated by dissolving the compound in acetone/alcohol (50:50) mixture containing 23 g of "TOXIMUL R" (sulfonate/nonionic emulsifier blend) and 13 g of "TOXIMUL S" (sulfonate/nonionic emulsifier blend) per liter. […] After standard exposure periods, percent mortality was evaluated. […]
PARAMETER_MEASURED: mortality at 400 ppm (%)
Value expressed in %; do not type the unit.

Input Cc1ccc(CCNc2ccnc3ccc(C)cc23)cc1 . Output mortality at 400 ppm: 0

Input Fc1cc(F)c2nccc(NCCc3ccc(Cl)cc3)c2c1 . Output mortality at 400 ppm: 40

Input Clc1ccc2c(NCCC3=CCCCC3)ccnc2c1 . Output mortality at 400 ppm: 0

Input COc1ccc(CCNc2ccnc3c(F)cccc23)cc1OC . Output mortality at 400 ppm: 0

====

# Test system: Erysiphe graminis tritici (powdery mildew)
# RUN_DESCRIPTION: Test 1 greenhouse foliar spray screen, powdery mildew on wheat
# Assay type: in vivo
# MEASUREMENT_SETUP: Blumeria graminis, foliar, Test 1, foliar spray on wheat; disease control rating at 400 ppm / 100 ppm; read-out: POWD MDEW
For each entry below, report its pest or weed control at 400 ppm value.

Input Cc1ccc(CCOc2cc(OCCc3ccc(C)cc3)c3cccc(F)c3n2)cc1 . Output pest or weed control at 400 ppm: 0 to 19%

Input CC(C)(C)c1ccc(CCOc2ccnc3c(Br)cccc23)cc1 . Output pest or weed control at 400 ppm: 0 to 19%

Input Fc1cccc2c(OCCc3cccc4ccccc34)ccnc12 . Output pest or weed control at 400 ppm: 20 to 89%

Input Fc1ccccc1CCOc1ccnc2c(F)cccc12 . Output pest or weed control at 400 ppm: 90 to 100%

Input Fc1cccc2c(OCCc3cccc(Sc4ccccc4)c3)ccnc12 . Output pest or weed control at 400 ppm: 90 to 100%

Input CC(C)(C)c1ccc(CCOc2ccnc3ccccc23)cc1 [Example 262, 4-[2-[4-(t-butyl)phenyl]ethoxy]quinoline] . Output pest or weed control at 400 ppm: 0 to 19%

Input Fc1cccc2c(OCCCc3cccc(C(F)(F)F)c3)ccnc12 . Output pest or weed control at 400 ppm: 0 to 19%

Input C=CCCCOc1ccnc2c(F)cccc12 . Output pest or weed control at 400 ppm: 90 to 100%

Input Fc1cccc2c(NCCc3ccc(Cl)cc3Cl)cc(NCCc3ccc(Cl)cc3Cl)nc12 . Output pest or weed control at 400 ppm: 0 to 19%

Input Clc1ccc(CCOc2ccnc3cc(Cl)ccc23)cc1 . Output pest or weed control at 400 ppm: 20 to 89%

Input Fc1cccc2c(CCCc3cccc(C(F)(F)F)c3)ccnc12 . Output pest or weed control at 400 ppm: 20 to 89%

Input Clc1cccc2c(NCCc3cccc(Oc4ccccc4)c3)ccnc12 . Output pest or weed control at 400 ppm: 90 to 100%

Input Cc1ccc(CCCc2ccnc3c(F)cccc23)cc1 . Output pest or weed control at 400 ppm: 90 to 100%

Input COc1ccccc1CCOc1ccnc2c(F)cccc12 . Output pest or weed control at 400 ppm: 90 to 100%

Input Fc1cccc2c(OCCc3cccc(C(F)(F)F)c3)ccnc12 . Output pest or weed control at 400 ppm: 20 to 89%

Input Fc1ccc(CCOc2ccnc3c(F)cccc23)c(F)c1 . Output pest or weed control at 400 ppm: 90 to 100%

Input CCC(COc1ccnc2c(F)cccc12)c1ccc(-c2ccccc2)cc1 (stereo not drawn) . Output pest or weed control at 400 ppm: 0 to 19%

Input COc1ccc(CCOc2ccnc3c(F)cccc23)cc1OC . Output pest or weed control at 400 ppm: 90 to 100%

These data points were gathered from patent EP0326331B1.
